PROTOCOL DESCRIPTION: NCI Yeast Anticancer Drug Screen. Data for the sgs1 mgt1 strain (AID 161);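 note: 0% = growth of cultures given vehicle only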
CONDITION DETAILS: S. cerevisiae sgs1 mgt1 strain, stronger effect = higher value; at 50.0 µM unless noted
Description: Growth inhibition of yeast strains with defined genetic alterations is measured as a screen for potential anti-cancer activity. Selected strains with alterations in DNA damage repair or cell cycle control were exposed to compounds and growth inhibition was measured relative to vehicle treated controls. The strain used in this assay is sgs1 mgt1
The panel holds about 79,000 compounds, 15% with a hit somewhere; the sample as a whole holds those more often.
Below: a set of entries, each annotated with reported growth inhibition.
Only the number, expressed in %, is required.

Nc1ccccc1SC(CC(=O)c1ccc(-c2ccccc2)cc1)c1ccco1 (stereo not drawn) ... 17
Nc1nc(=S)[nH]c(=S)[nH]1 ... 10.9
CC(=O)Oc1cccc2c1C(=O)c1c(OC(C)=O)cc(C)cc1C2=O ... 1.85
CCOC(C)=Nc1cc(OC)cc2c1NC(=O)CCS2 ... -36.6
CCCCCCCSCC(=O)OCC ... -22.5
COC1CCC(/C=C(\C#N)C2CCC(C)CC2)CC1 (stereo not drawn) ... 43.9
CCC(CC)/C(=N/Nc1ccc([N+](=O)[O-])cc1[N+](=O)[O-])C1=CCCCC1 ... -5.1

Next:
Req: Input Cc1ccnc(NC(=O)CCc2ccccc2)c1 , output reported growth inhibition.
Resp: -10.3
